The entries below come with measured solubility at 2 min values attached.
assay: Assay for solubility in distilled water (turbidity by naked eye); format: physicochemical; conditions: thermodynamic from solid, average of three runs

Answered cases to consult:
compound	solubility at 2 min
Cc1nnc(-c2ccc(-c3ccc(N4C[C@H](COP(=O)([O][Na+])[O][Na+])OC4=O)cc3F)cn2)o1 [Compound 60]	> 50 mg/mL
C[C@H](N)C(=O)OC[C@H]1CN(c2ccc(-c3ccc(-c4nnn(C)n4)nc3)c(F)c2)C(=O)O1.Cl [Compound 44]	> 50 mg/mL
Cc1nnc(-c2ccc(-c3ccc(N4C[C@H](COC(=O)[C@@H]5CCCN5)OC4=O)cc3F)cn2)o1.Cl [Compound 56]	> 50 mg/mL

Which solubility at 2 min value belongs to Cn1nnc(-c2ccc(-c3ccc(N4C[C@H](COP(=O)([O][Na+])[O][Na+])OC4=O)cc3F)cn2)n1 [Compound 59] ? > 50 mg/mL

Cited source for all entries: patent US8420676B2
